Data origin, for the record: patent US20230095569A1

Entries and their IC50 of indirect ADC cytotoxicity values follow.
target: human Claudin18.2 (CLDN18.2) (human, UniProt P56856 1-261); test: cell-based or functional assay

- binder: "chAb08 (antibody, V domains shown) VH: QVQLQQPGAELVKPGASVKLSCKASGYTFTSYLLHWVKQRPGQGLEWIGMIHPNGGSTNYNEKFKTKATLTVDKSSSTAYMQLSSLTSEDSAVYYCAPVYFGNSFAYWGQGTLVTVSA VL: DIVMTQSPSSLTVTAGEKVTMSCKSSQSLLNSGNQKNYLTWYQQKPGQPPKLLIYWASTRESGVPDRFTGSGSGTDFTLTISSVQAEDLAVYYCQNDYYYPFTFGSGTKLEKK"
  valueUnits: "nM"
  IC50 of indirect ADC cytotoxicity: 0.45
- binder: "chAb20 (antibody, V domains shown) VH: EVMLVESGGGLVKPGGSLKLSCVASGFTFSSYTMSWVRQTPEKRLEWVATIIGGYGNTYYSDSVKGRITISRDSAKNTLYLQMISLRSEDTALYYCTRLGQTQRNAMDYWGQGTSVTVSS VL: DILMTQSPSSLSVSAGEKVTMNCKSSQSLLNSGNQKNYLAWYQQKPGQPPKLLIYGASTRESGVPDRFTGSGSGTDFTLTISSVQAEDLAVYYCQNDYYYPFTFGAGTKLEL"
  valueUnits: "nM"
  IC50 of indirect ADC cytotoxicity: 0.47
- binder: "chAb18 (antibody, V domains shown) VH: QVQLKESGPGLVAPSQSLSITCTVSGFSLTTYGINWVRQPPGKGLEWLGVIWGDGSTNYHSALISRLSISKDNSKSQVFLKLNSLQTDDTATYYCVKSSYYGNAMDYWGQGTSVTVSS VL: DIVMTQSPSSLTVTAGETVTMSCKSSQSLLNSGNQKNYLTWYQQKPGQPPKLLIYWASTRESGVPDRFTGSGSGTDFTLTISSVQAEDLAVYYCQNVYSYPFTFGSGTKLEI"
  valueUnits: "nM"
  IC50 of indirect ADC cytotoxicity: 1.58
